Data provenance: patent US20240360238A1

Please respond with reported IC50, killing of primary human CD34+CD90+ cells (5 days, flow cytometry counts) for every item in the list.
STUDY SYSTEM: CD117 on Kasumi-1 cells and primary human CD34+ bone marrow cells (human, UniProt P10721 26-976)
Sequence (P10721 26-976): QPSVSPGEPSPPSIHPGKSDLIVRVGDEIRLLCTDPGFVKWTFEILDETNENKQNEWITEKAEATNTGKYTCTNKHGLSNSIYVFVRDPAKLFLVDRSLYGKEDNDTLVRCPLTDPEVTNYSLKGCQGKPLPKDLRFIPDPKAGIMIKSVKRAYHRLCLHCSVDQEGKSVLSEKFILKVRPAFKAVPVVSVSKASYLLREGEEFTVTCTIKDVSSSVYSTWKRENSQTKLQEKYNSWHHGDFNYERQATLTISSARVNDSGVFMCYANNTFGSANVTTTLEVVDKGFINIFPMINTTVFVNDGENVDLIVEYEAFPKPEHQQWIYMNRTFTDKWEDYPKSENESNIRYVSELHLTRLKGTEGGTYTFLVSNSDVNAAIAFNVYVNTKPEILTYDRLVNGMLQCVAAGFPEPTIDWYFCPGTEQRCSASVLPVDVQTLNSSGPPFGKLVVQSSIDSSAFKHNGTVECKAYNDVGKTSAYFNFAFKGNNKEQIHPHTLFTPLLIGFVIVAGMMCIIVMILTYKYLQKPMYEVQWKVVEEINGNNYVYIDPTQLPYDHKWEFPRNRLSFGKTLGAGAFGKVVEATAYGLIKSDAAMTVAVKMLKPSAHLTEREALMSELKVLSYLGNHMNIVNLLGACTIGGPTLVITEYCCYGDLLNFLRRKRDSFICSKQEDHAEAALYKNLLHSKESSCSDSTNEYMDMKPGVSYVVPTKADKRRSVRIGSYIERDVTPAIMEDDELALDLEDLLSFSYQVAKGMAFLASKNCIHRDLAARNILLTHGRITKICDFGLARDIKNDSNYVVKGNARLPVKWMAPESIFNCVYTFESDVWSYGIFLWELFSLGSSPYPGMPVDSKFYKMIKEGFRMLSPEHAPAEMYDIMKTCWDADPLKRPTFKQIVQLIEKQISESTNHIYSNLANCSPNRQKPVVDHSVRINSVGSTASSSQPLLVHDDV
TEST DETAILS: cell-based or functional assay
Answers are plain numbers, in pM.

# BINDER, ASSAY RESULT
measured = [
    ("HC-85/LC-85 ADC (Ab85 conjugated to an amatoxin) (antibody, V domains shown, antibody conjugated to an amatoxin; site not stated) VH: EVQLVQSGAEVKKPGESLKISCKGSGYSFTNYWIGWVRQMPGKGLEWMAIINPRDSDTRYRPSFQGQVTISADKSISTAYLQWSSLKASDTAMYYCARHGRGYEGYEGAFDIWGQGTLVTVSS VL: DIQMTQSPSSLSASVGDRVTITCRSSQGIRSDLGWYQQKPGKAPKLLIYDASNLETGVPSRFSGSGSGTDFTLTISSLQPEDFATYYCQQANGFPLTFGGGTKVEIK", 5.74),
    ("HC-79/LC-79 anti-CD117-ADC (conjugated to an amatoxin) (antibody, V domains shown, antibody conjugated to an amatoxin; site not stated) VH: QVQLVQSGAAVKKPGESLKISCKGSGYRFTTYWIGWVRQMPGKGLEWMGIIYPGDSDTRYSPSFQGQVTISAGKSISTAYLQWSSLKASDTAMYYCARHGRGYNGYEGAFDIWGQGTMVTVSS VL: DIQLTQSPSSLSASVGDRVTITCRASQGVGSALAWYQQKPGKAPKLLIYDASILESGVPSRFSGSGSGTDFTLTISSLQPEDFATYYCQQFNSYPLTFGGGTKVEIK", 7.09),
]

Query binder follows.
Supply reported IC50, killing of primary human CD34+CD90+ cells (5 days, flow cytometry counts) belonging to this binder: HC-248/LC-248 anti-CD117-ADC (conjugated to an amatoxin) (antibody, V domains shown, antibody conjugated to an amatoxin; site not stated) VH: EVQLVQSGAEVKKPGESLKISCKGSGYRFTTSWIGWVRQMPGKGLEWMGIIYPGDSDTRYSPSFQGQVTISADKSISTAYLQWSSLKASDTAMYYCARHGLGYNGYEGAFDIWGQGTLVTVSS VL: DIQMTQSPSSLSASVGDRVTITCRASQGIGSALAWYQQKPGKAPKLLIYDASTLESGVPSRFSGSGSGTDFTLTISSLQPEDFATYYCQQLNGYPLTFGQGTRLEIK
6.46
